Listing of recorded TRE, relative intensity ratio by entry.
System: TRE
test description: siRNA transfection array, TRE EGFP reporter, HepG2 cells
Type: cell-based, human
measurement conditions: EGFP intensity relative to Scramble II Duplex negative control (100%)
measure name: TRE, relative intensity ratio (%)

[[record]]
substance = "RARG siRNA: siRNA SEQ ID NO: 68 (Dharmacon), targets human retinoic acid receptor gamma M57707 (GCCCUACAUGUUCCCAAGG; chemistry not given here)"
subject_of_test = "TRE"
measure_name = "TRE, relative intensity ratio"
test_value = 103.5

[[record]]
substance = "p53 siRNA: siRNA SEQ ID NO: 76 (Dharmacon), targets human p53 AF307851 (GACUCCAGUGGUAAUCUAC; chemistry not given here)"
subject_of_test = "TRE"
measure_name = "TRE, relative intensity ratio"
test_value = 294.4

[[record]]
substance = "c-Jun siRNA: siRNA SEQ ID NO: 54 (Dharmacon), targets human c-jun J04111 (GGUGGCACAGCUUAAACAG; chemistry not given here)"
subject_of_test = "TRE"
measure_name = "TRE, relative intensity ratio"
test_value = 98.6

[[record]]
substance = "ER siRNA: siRNA SEQ ID NO: 57 (Dharmacon), targets human estrogen receptor M12674 (CCUUCUAGAAUGUGCCUGG; chemistry not given here)"
subject_of_test = "TRE"
measure_name = "TRE, relative intensity ratio"
test_value = 86.7

[[record]]
substance = "RARA siRNA: siRNA SEQ ID NO: 65 (Dharmacon), targets human retinoic acid receptor alpha NM_000964 (GUACUGCCGACUGCAGAAG; chemistry not given here)"
subject_of_test = "TRE"
measure_name = "TRE, relative intensity ratio"
test_value = 112.5

[[record]]
substance = "STAT1b siRNA: siRNA SEQ ID NO: 72 (Dharmacon), targets human transcription factor ISGF-3 M97936 (GGAAGACCCAAUCCAGAUG; chemistry not given here)"
subject_of_test = "TRE"
measure_name = "TRE, relative intensity ratio"
test_value = 111.2

[[record]]
substance = "HSF-2 siRNA: siRNA SEQ ID NO: 60 (Dharmacon), targets human HSF2 M65217 (GUUCCACACAGUAGGACUG; chemistry not given here)"
subject_of_test = "TRE"
measure_name = "TRE, relative intensity ratio"
test_value = 183.5

[[record]]
substance = "IkBa siRNA: siRNA SEQ ID NO: 62 (Dharmacon), targets human MAD-3 (IkB-like) M69043 (GCAGACUCCACUCCACUUG; chemistry not given here)"
subject_of_test = "TRE"
measure_name = "TRE, relative intensity ratio"
test_value = 139.8

[[record]]
substance = "HSF-1 siRNA: siRNA SEQ ID NO: 59 (Dharmacon), targets human HSF1 NM_005526 (GGAGUGCAUGGACUCCAAG; chemistry not given here)"
subject_of_test = "TRE"
measure_name = "TRE, relative intensity ratio"
test_value = 1198.2

[[record]]
substance = "RARB1 siRNA: siRNA SEQ ID NO: 66 (Dharmacon), targets human RARB transcript variant 1 NM_000965 (GUGAACUGGCCACCAAGUG; chemistry not given here)"
subject_of_test = "TRE"
measure_name = "TRE, relative intensity ratio"
test_value = 120.2

[[record]]
substance = "HSF-4 siRNA: siRNA SEQ ID NO: 61 (Dharmacon), targets human heat shock transcription factor 4 D87673 (GUCGCCUUCUACUUACAGC; chemistry not given here)"
subject_of_test = "TRE"
measure_name = "TRE, relative intensity ratio"
test_value = 233.3

[[record]]
substance = "STAT3 siRNA: siRNA SEQ ID NO: 74 (Dharmacon), targets human DNA-binding protein APRF L29277 (GAAACUGGAGGAGUUGCAC; chemistry not given here)"
subject_of_test = "TRE"
measure_name = "TRE, relative intensity ratio"
test_value = 106.9

[[record]]
substance = "NFkB siRNA: siRNA SEQ ID NO: 64 (Dharmacon), targets human p50-NF-kappa B homolog S76638 (GCCUAAGCAGAGAGGCUUC; chemistry not given here)"
subject_of_test = "TRE"
measure_name = "TRE, relative intensity ratio"
test_value = 143.3

[[record]]
substance = "STAT1a siRNA: siRNA SEQ ID NO: 71 (Dharmacon), targets human transcription factor ISGF-3 M97935 (GGAAGACCCAAUCCAGAUG; chemistry not given here)"
subject_of_test = "TRE"
measure_name = "TRE, relative intensity ratio"
test_value = 108.7

[[record]]
substance = "RARB2 siRNA: siRNA SEQ ID NO: 67 (Dharmacon), targets human RARB transcript variant 2 NM_016152 (GACGGCCUUACCCUAAAUC; chemistry not given here)"
subject_of_test = "TRE"
measure_name = "TRE, relative intensity ratio"
test_value = 142.7

[[record]]
substance = "TR siRNA: siRNA SEQ ID NO: 75 (Dharmacon), targets human thyroid hormone receptor Y00479 (CCUCCAUCCCACCUAUUCC; chemistry not given here)"
subject_of_test = "TRE"
measure_name = "TRE, relative intensity ratio"
test_value = 86.8

[[record]]
substance = "NFAT3 siRNA: siRNA SEQ ID NO: 63 (Dharmacon), targets human NF-AT3 L41066 (GCCACUGACCCUACAGAUG; chemistry not given here)"
subject_of_test = "TRE"
measure_name = "TRE, relative intensity ratio"
test_value = 120.8

[[record]]
substance = "c-Fos siRNA: siRNA SEQ ID NO: 53 (Dharmacon), targets human c-fos K00650 (GCGGAGACAGACCAACUAG; chemistry not given here)"
subject_of_test = "TRE"
measure_name = "TRE, relative intensity ratio"
test_value = 127.0

[[record]]
substance = "E2F siRNA: siRNA SEQ ID NO: 56 (Dharmacon), targets human E2F-1 M96577 (CUGACCAUCAGUACCUGGC; chemistry not given here)"
subject_of_test = "TRE"
measure_name = "TRE, relative intensity ratio"
test_value = 89.3

[[record]]
substance = "STAT2 siRNA: siRNA SEQ ID NO: 73 (Dharmacon), targets human interferon alpha induced transcriptional activator M97934 (GGUGCUCAUCUACUCUGUG; chemistry not given here)"
subject_of_test = "TRE"
measure_name = "TRE, relative intensity ratio"
test_value = 90.6

